Assay: CEETOX_H295R_CORTISOL: CeeTox H295R High-throughput Steroidogenesis Assay for Cortisol (AID 2283438);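 further: cortisol secreted into medium quantified by LC-MS/MS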
Conditions: actives raise or lower the signal
Experimental: CEETOX_H295R is a cell-based, multiplexed-readout assay that uses H295R, a human adrenal gland cell line, with measurements taken at 48 hours after chemical dosing in a 96-well plate.CEETOX_H295R_CORTISOL is one of 23 assay component(s) measured or calculated from the CEETOX_H295R assay. […] This assay endpoint, CEETOX_H295R_CORTISOL, was analyzed with bidirectional fitting relative to DMSO as the negative control and baseline of activity. […]
Active and inactive are the calls of the source. How the source made its calls: active means hit-call score of the fitted dose curve at least 0.9, where 1 is the maximum; inactive means score below 0.9.
value-type: outcome

- Nc1nc(Cl)nc2c1ncn2[C@H]1C[C@H](O)[C@@H](CO)O1: inactive
- CN(C)C(=O)NC1(c2ccccc2)CCN(CCC[C@]2(c3ccc(Cl)c(Cl)c3)CCCN(C(=O)c3ccccc3)C2)CC1: inactive
- COc1ccc(C(=O)Nc2nc3ccccc3c(NCc3ccccc3)c2C#N)cc1: inactive
